# system_under_test: T1, human TNFSF9 (R&D Systems; #2295-4L-025/CF) (human, UniProt P41273 71-254, limits assumed)
# T1 construct: also called TNFSF9 (ligand); TNFSF9 ligand
# method_summary: MSD ELISA: TNFSF9 + 1 ug/mL antibody, binding to coated TNFRSF9
binders and their reported % inhibition of ligand receptor interaction
readout_kind: % inhibition of ligand receptor interaction (%)

binder="SC113.148 (antibody, V domains shown) VH: QVQLKQSGPGPVQPSQSLSITCTVSGFSLTSYGVHWVRQSPGKGLEWLGVIWSGGSTDDNAAFISRMSITKDNSKSQVFLKMNSLQADDTAKYYCARNYYYEGRYYVMDYWGQGTSVIVSS VL: DIVLTQSPVSLAVSLGQRATISCRASESVEYYGTSLMQWYQQKPGQPPKLLIYAASNVESGVPARFSGSGSGTDFSLNIHPVEEDDIAMYFCQQSRKVPWTFGGGTKLEIK" endpoint_result=-63
binder="SC113.15 (antibody, mouse IgG1, V domains shown, mouse IgG1) VH: QVQLQQSGAELAKPGASVKMSCKASGYTFTTFWMHWLKQRPGQGLEWIGYINPRTYFTYYNQKFEDQATLTADESSSTAYMQLNSLTSEDSAVYYCATHHGGFDVWGAGTTVTVSS VL: DVVMTQTPLSLPVSLGDQASISCRSSQSLVHSNGDTYLHWYLQKPGQSPKLLIYKVSNRFSGVPDRFSGSRSGTDFTLKISRVEAEDLGIYFCSQSTHVPYTFGGGTKLEIK" endpoint_result=42
